Run description: AUCt in Sprague-Dawley rat at 5 mg/kg, iv by LC-MS/MS analysis
Format: ADME, organism-based
Parameters: dose 5 mg/kg, route iv
Assay conditions: in vivo
Readout name: AUC(0-t) (ng·h/mL)

Item smiles: O=C(CN1CCN(c2ccc(OC(F)(F)F)cc2)CC1)Nc1ccc(-c2nc3ccccn3c2CN2CCN(c3ccccc3)CC2)cc1
Result value: 651

====

Run description: Cytotoxicity against human HEK293 cells expressing ABCG2 assessed as reduction in cell viability incubated for 72 hrs by SRB assay
Format: toxicity, cell-based
Readout name: log10(IC50 at 72 h) (log10 of the value in µM)

Item smiles: COc1ccc(/C=C/C(=O)Nc2ccc(-c3nc4ccccn4c3CN3CCN(c4ccccc4)CC3)cc2)cc1
log10(IC50 at 72 h): 1.09
//
Item smiles: O=C1c2c(O)ccc(O)c2C(=O)c2c(NCCNCCO)ccc(NCCNCCO)c21
log10(IC50 at 72 h): 0.24
//
Item smiles: O=C(CN1CCN(c2ccc(OC(F)(F)F)cc2)CC1)Nc1ccc(-c2nc3ccccn3c2CN2CCN(c3ccccc3)CC2)cc1
log10(IC50 at 72 h): 1.83
//
Item smiles: C=CCN(CC=C)CC(=O)Nc1ccc(-c2nc3ccccn3c2CN2CCN(c3ccccc3)CC2)cc1
log10(IC50 at 72 h): 1.27
//
Item smiles: C=CCN(CC=C)CC(=O)Nc1ccc(-c2nc3ccccn3c2CN2CCc3cc(OC)c(OC)cc3C2)cc1
log10(IC50 at 72 h): 1.06

====

Form field: IC50 at 72 h (one value per entry).
Run description: Cytotoxicity against human K562/A02 cells overexpressing ABCB1 assessed as decrease in cell survival rate incubated for 72 hrs by MTS assay
Type: toxicity, cell-based
Readout name: IC50 at 72 h

Item smiles: O=C(CN1CCN(c2ccccc2)CC1)Nc1ccc(-c2nc3ccccn3c2CN2CCN(c3ccccc3)CC2)cc1
Result value: > 100 µM
//
Item smiles: CCN(CC)CC(=O)Nc1ccc(-c2nc3ccccn3c2CN2CCc3cc(OC)c(OC)cc3C2)cc1
Result value: > 100 µM
//
Item smiles: COc1cc2c(cc1OC)CN(CCC(=O)Nc1ccc(-c3nc4ccccn4c3CN3CCN(c4ccccc4)CC3)cc1)CC2
Result value: 13.6 µM
//
Item smiles: COc1cc2c(cc1OC)CN(Cc1c(-c3ccc(NC(=O)COc4ccc(OC(F)(F)F)cc4)cc3)nc3ccccn13)CC2
Result value: 40.9 µM
//
Item smiles: Cc1ccc(/C=C/C(=O)Nc2ccc(-c3nc4ccccn4c3CN3CCN(c4ccccc4)CC3)cc2)cc1
Result value: > 100 µM
//
Item smiles: C=CCc1ccc(OCC(=O)Nc2ccc(-c3nc4ccccn4c3CN3CCc4cc(OC)c(OC)cc4C3)cc2)c(OC)c1
Result value: > 100 µM
//
Item smiles: COc1cc2c(cc1OC)CN(Cc1c(-c3ccc(NC(=O)CN4CCOCC4)cc3)nc3ccccn13)CC2
Result value: > 100 µM
//
Item smiles: COc1cc2c(cc1OC)CN(CC(=O)Nc1ccc(-c3nc4ccccn4c3CN3CCc4cc(OC)c(OC)cc4C3)cc1)CC2
Result value: > 100 µM

====

Run description: Metabolic stability in rat liver microsomes assessed as half life at 80 ug/ml preincubated for 5 mins followed by NADPH addition and measured upto 120 mins by LC-MS/MS analysis
Type: ADME, Microsome
Assay conditions: dose 80 µg/ml, time < 125 min

Item smiles: O=C(CN1CCN(c2ccc(OC(F)(F)F)cc2)CC1)Nc1ccc(-c2nc3ccccn3c2CN2CCN(c3ccccc3)CC2)cc1
Unit descriptor: h
half-life at 80 ug/ml: 1.02
